Assignment: determine reported melting point for the given compounds.

Below, each entry is followed by its recorded melting point result.
COCCCOc1ccc(/C=C/C(=O)O)c(Oc2ncc(C(F)(F)F)cc2Cl)c1 ... 131 to 133 °C
CCn1c(Cc2ccc(C)cc2)nnc1[C@@H](C)NS(=O)(=O)c1ccc(Cl)c(Cl)c1 ... 189 to 191 °C

Give one value of melting point per listed compound.
1. Nc1cccc(CC2COc3ccc(OCc4ccc5ccc(Cl)cc5n4)cc3C2)c1 (single isomer, unassigned; (+))
2. COC(=O)c1ccc(CO)cc1SCc1ccccc1
3. COc1cc2c(cc1OCc1ccccc1)C(C1(c3ccccc3OC)CC1)N(C)CC2 (stereo not given)

[reply]
128 to 130 °C
89.5 to 92 °C
118 °C

Give one value of melting point per listed compound.
1. CC1(C)C(=O)c2c(cc(O)c(Cl)c2Cl)C1c1ccccc1 (stereo not given)
2. Cc1cc2c([nH]c1=O)C(=O)c1ccccc1C2=O
3. CC(C)(C)C1=C(C#N)C(c2ccccc2Cl)c2c[nH]nc2N1 (stereo not given)
4. CCCC1(C(=O)NCCN2CCC(N3Cc4ccccc4C3=O)CC2)c2ccccc2-c2ccccc21
5. CCc1cc(Br)cc(NC(=O)C=NO)c1
6. Cc1c(Cl)cc2nc(Cl)c(Cl)nc2c1[N+](=O)[O-]
7. COC(=O)C(CSC(=O)c1ccccc1)NC(=O)C(=O)NC(CSC(=O)c1ccccc1)C(=O)OC (stereo not given)

[reply]
["259 to 262 °C", "> 300 °C", "198 °C", "219 to 221 °C", "176 to 178 °C", "121 to 122 °C", "185 to 186 °C"]

Give one value of melting point per listed compound.
1. CCOC(=O)N1CC(C)(C)CSC1=Nc1ccccc1C(C)C
2. CCOc1ccccc1[C@H]1O[C@H](CC(=O)O)C(=O)N(CC(C)C)c2ccc(Cl)cc21 (relative stereo)
3. COc1cccc2oc(C(=O)C34CC5CC(CC(C5)C3)C4)cc12
4. O=C(c1ccccc1)C(F)c1ccccc1 (stereo not given)
5. [N-]=[N+]=NC(=O)c1csc(Cl)n1
6. CCc1ccc(N(Cc2ccc(N(C)C)cc2)C(=O)C2CCCc3ccccc32)cc1 (stereo not given)
7. COc1cc2ncc(C#N)c(Nc3ccc(CCO)cc3)c2cc1OC
8. COCc1csc2c(C(=O)O)c(=O)c3cc4c(cc3n12)OCO4

[reply]
1: 84 to 86 °C; 2: 190 to 192 °C; 3: 96 to 98 °C; 4: 50 to 51 °C; 5: > 250 °C; 6: 109 to 110 °C; 7: 208 to 210 °C; 8: 265 °C

* * *

Assignment: determine reported melting point for the given compounds.

COc1cccc(C=C2NC(=O)NC2=O)c1 ... 229 to 231 °C
NCc1ccsc1CC(=O)O ... 194 to 195 °C

Give one value of melting point per listed compound.
1. CCOC(=O)c1cnc2scc(C)c2c1O
2. COc1ccc(Cc2nnc(N[C@H]3CC[C@H](C(C)C)CC3)c3ccccc23)cn1
3. O=C(CN1CCNC1=O)N1CCC(C2c3ncc(Br)cc3CCc3cc(Cl)cc(Br)c32)CC1 (single isomer, unassigned; (+))

[reply]
1: 189 to 192 °C; 2: 124 to 125 °C; 3: 167 to 168 °C

Recorded values, source a melting point compilation (Tetko et al.; mined from patent text by program, amines drawn as free bases though some values may be those of a salt).
